Data provenance: patent US20220323614A1

List of pERK G12D (AsPC-1 at 4 µM for 12 hours) values.
target: KRAS (G12D) as expressed in G12D-mutant cancer cells (AsPC-1, SW 1990, pancreatic cancer cells) (human) (UniProt P01116); test: cell-based or functional assay
Primed or numbered codes have the meaning given here. Where no end group is shown, it is not given here. [ ]: non-standard residue; d: D form. The star is where a group is joined. Az2 = aminoazidobutanoic acid, ring closure; Palmitoyl = CCCCCCCCCCCCCCCC(=O)*; Thz′ = not defined here
Parameter measured: pERK G12D (AsPC-1 at 4 µM for 12 hours)

- Ac-[dW][dK][dY][4‑F‑f]K(Palmitoyl) (triazole (positions not given here); also: cyclic via triazole, ring-closing residues not given here) [Ac-wky(4-F-f)-Lys(Pal)]: 1.14
- Ac-[Thz′][dK][dY][dF]K(Palmitoyl) (triazole (positions not given here); reading uncertain; also: cyclic via triazole, ring-closing residues not given here, printed as Ac-(Thz)kyf-Lys(Pal)) [Ac-(Thz)kyf-Lys(Pal)]: 1.11
- Ac-[dW][dK][dY][4‑Cl‑f]K(Palmitoyl) (triazole (positions not given here); also: cyclic via triazole, ring-closing residues not given here) [Ac-wky(4-Cl-f)-Lys(Pal)]: 0.8
- Ac-[dW][dK][dY][dF][Az2]K(Palmitoyl) (triazole (positions not given here); also: cyclic via triazole, other ring-closing residue not given here) [Ac-wkyf-Az2-Lys(Pal)]: 0.794
